# MEASUREMENT_PROTOCOL: Equilibrium solubility by shake-flask method (SFM)
# Type: physicochemical
# EXPERIMENTAL_CONTEXT: pH 8.5, aqueous buffer, thermodynamic from solid; thermodynamic shake-flask, excess solid, PBS, pH 8.50 (adjusted), shaken 24 h, 25 °C, HPLC-UV 280 nm; mean ± SD, n = 3; read-out: Solubility in PBS
Square brackets hold non-standard residues; d marks the D form. Peptide text beside a SMILES is read from it. * marks the point of attachment. X1 = OC[C@H]1O[C@@H](O[C@H]2[C@H](O)[C@@H](O)[C@H](*)O[C@@H]2CO)[C@H](O)[C@@H](O)[C@H]1O
READOUT_LABEL: solubility thermodynamic at 24 h (mg/mL)
A number alone suffices; assume mg/mL.

In: Which solubility thermodynamic at 24 h value is on record for CC(C)C[C@H](NC(=O)[C@H](Cc1ccccc1)NC(=O)CNC(=O)[C@H](NC(=O)[C@@H](N)Cc1ccc(O)cc1)[C@H](C)O)C(=O)N[C@@H](CO[C@@H]1O[C@H](CO)[C@@H](O[C@@H]2O[C@H](CO)[C@H](O)[C@H](O)[C@H]2O)[C@H](O)[C@H]1O)C(N)=O [Lactomorphin] (H-Y[dT]GFLS(X1)-NH2) ?
Out: 570
